B1: AUP1 (parent)
chain: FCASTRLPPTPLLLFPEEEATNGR

Variants of: B1
Assay: protein stability index of a GFP-peptide fusion (GPS, HEK-293T) (PSI 1-6); higher = more stable;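 note: lentivirally expressed fusions sorted by FACS into six bins by GFP to DsRed ratio, PSI derived from sequencing read proportions per bin multiplied by bin number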
Settings: c terminus: a fixed tail appended
measure: protein stability index
Reply with just the number.

Worked examples, 6 variants total:
FCASTRLPPTPLLLFPEVEATNGR
2.21
FCASTRLPPTPLLLVPEEEATNGR
3.1
FCASTRLPPTPLLLFPNEEATNGR
2.55
FCASTRLPPTYLLLFPEEEATNGR
1.91
FCASTRLPPTPLLLMPEEEATNGR
3.12
FCASTRLPATPLLLFPEEEATNGR
2.59

Request: Requested field: protein stability index. Item: FCASTRLPPTPLLLFPEEEATLGR
Result: 2.19

Request: // lookup protein stability index for FCASTRLPPTPLLLFPEEEATNGG
Result: 3.69

Request: Consider the variant FCASTRLPPCPLLLFPEEEATNGR and give its measured protein stability index.
Result: 2.33

Request: What protein stability index value was documented for this variant, FCASTWLPPTPLLLFPEEEATNGR ?
Result: 2.12

Request: Could you tell me which protein stability index is on file for FCASTGLPPTPLLLFPEEEATNGR ?
Result: 2.7

Request: What does the record list as protein stability index for FCASTRLPPTPLLLFPEEEATNDR ?
Result: 3.33

Request: I have this variant here, FEASTRLPPTPLLLFPEEEATNGR , and I need its recorded protein stability index.
Result: 4.91

Request: Suppose we examine the variant FCASTRLPPTPLLLFPSEEATNGR ; what protein stability index value has been reported?
Result: 1.8

Request: Fill blank: measured protein stability index of the variant FCASTKLPPTPLLLFPEEEATNGR is ____.
Result: 3.09

Request: Given the variant FCASTRLPPTPLLLFPEEEATNLR , what is its reported protein stability index?
Result: 2.67

Request: Consider the variant shown here: FCASTRLPPHPLLLFPEEEATNGR What is its recorded protein stability index?
Result: 1.68

Request: Return reported protein stability index; argument: FAASTRLPPTPLLLFPEEEATNGR
Result: 3.42

Request: Give its protein stability index value. Item: HCASTRLPPTPLLLFPEEEATNGR
Result: 4.28

Request: Give its protein stability index value. Item: FCASTRLPPTPLLLCPEEEATNGR
Result: 2.61

Request: Which protein stability index reading was recorded for the variant FCASTRLPPTPLKLFPEEEATNGR ?
Result: 2.74

Request: I would be grateful if you could share the reported protein stability index for FCASTRLPPTPLLLFPEERATNGR .
Result: 2.05

Request: Dear colleague, I am looking for the recorded protein stability index of the following variant: FCASTRLPPTPLLLFPEEEATNHR
Result: 2.82

Request: Fill in: protein stability index of FCASTELPPTPLLLFPEEEATNGR is ___
Result: 4.11

Request: Reported protein stability index, variant FCATTRLPPTPLLLFPEEEATNGR : ____
Result: 2.76

Request: What protein stability index value was documented for this variant, FCASTRLPPTPLLLFPEEEAENGR ?
Result: 3.68

Request: May I ask what protein stability index has been recorded for FCASTRLPPTPLLLWPEEEATNGR ?
Result: 2.68
